Test system: OCI-LY7
Experiment: Combination of EPZ-6438 and other therapeutic agents (4+3 model), OCI-LY7
Details: WT EZH2 GCB
OBSERVED PROPERTY: combination effect with EPZ-6438, OCI-LY7

SMILES STR	MEASURED
CO[C@H]1C[C@@H]2CC[C@@H](C)[C@@](O)(O2)C(=O)C(=O)N2CCCC[C@H]2C(=O)O[C@H]([C@H](C)C[C@@H]2CC[C@@H](OCCO)[C@H](OC)C2)CC(=O)[C@H](C)/C=C(\C)[C@@H](O)[C@@H](OC)C(=O)[C@H](C)C[C@H](C)/C=C/C=C/C=C/1C	S
COc1cc(Nc2ncc(F)c(Nc3ccc4c(n3)NC(=O)C(C)(C)O4)n2)cc(OC)c1OC	S
NC1(c2ccc(-c3nc4ccn5c(=O)[nH]nc5c4cc3-c3ccccc3)cc2)CCC1	S
C=CC(=O)N1CCC[C@@H](n2nc(-c3ccc(Oc4ccccc4)cc3)c3c(N)ncnc32)C1	S
C[C@]12C=CC(=O)C=C1CC[C@@H]1[C@@H]2[C@@H](O)C[C@@]2(C)[C@H]1CC[C@]2(O)C(=O)CO	S
CC1(C)CCC(c2ccc(Cl)cc2)=C(CN2CCN(c3ccc(C(=O)NS(=O)(=O)c4ccc(N[C@H](CCN5CCOCC5)CSc5ccccc5)c(S(=O)(=O)C(F)(F)F)c4)cc3)CC2)C1	S
C[C@@H]1C[C@H]2[C@@H]3CCC4=CC(=O)C=C[C@]4(C)[C@@]3(F)[C@@H](O)C[C@]2(C)[C@@]1(O)C(=O)CO	S
CC(=O)Nc1cccc(-n2c(=O)n(C3CC3)c(=O)c3c(Nc4ccc(I)cc4F)n(C)c(=O)c(C)c32)c1	S
CC[C@H](Nc1ncnc2[nH]cnc12)c1nc2cccc(F)c2c(=O)n1-c1ccccc1	S

* * *

System: SU-DHL-10
Experiment: Combination of EPZ-6438 and other therapeutic agents (4+3 model), SU-DHL-10
Details: Mutant EZH2 GCB
OBSERVED PROPERTY: combination effect with EPZ-6438, SU-DHL-10

COMPOUND	MEASURED
C=CC(=O)N1CCC[C@@H](n2nc(-c3ccc(Oc4ccccc4)cc3)c3c(N)ncnc32)C1 [Ibrutinib]	S
Cn1cc(C2=C(c3cn(C4CCN(Cc5ccccn5)CC4)c4ccccc34)C(=O)NC2=O)c2ccccc21 [Enzastaurin]	S
COC1=CC(c2cc3ccccc3[nH]2)=N/C1=C\c1[nH]c(C)cc1C [Obatoclax]	ADD.
COc1cc(Nc2ncc(F)c(Nc3ccc4c(n3)NC(=O)C(C)(C)O4)n2)cc(OC)c1OC [Tamatinib]	S

* * *

Tested on: SU-DHL-10
Experiment: Combination of EPZ-6438 and other therapeutic agents (4+3 model), SU-DHL-10
Details: Mutant EZH2 GCB
OBSERVED PROPERTY: combination effect with EPZ-6438, SU-DHL-10

SMILES STR	MEASURED
Cc1nc(Nc2ncc(C(=O)Nc3c(C)cccc3Cl)s2)cc(N2CCN(CCO)CC2)n1	S
CC(C)C[C@H](NC(=O)[C@H](Cc1ccccc1)NC(=O)c1cnccn1)B(O)O	ADD.
CO[C@H]1C[C@@H]2CC[C@@H](C)[C@@](O)(O2)C(=O)C(=O)N2CCCC[C@H]2C(=O)O[C@H]([C@H](C)C[C@@H]2CC[C@@H](OCCO)[C@H](OC)C2)CC(=O)[C@H](C)/C=C(\C)[C@@H](O)[C@@H](OC)C(=O)[C@H](C)C[C@H](C)/C=C/C=C/C=C/1C	S
CC1(C)CCC(CN2CCN(c3ccc(C(=O)NS(=O)(=O)c4ccc(NCC5CCOCC5)c([N+](=O)[O-])c4)c(Oc4cnc5[nH]ccc5c4)c3)CC2)=C(c2ccc(Cl)cc2)C1	ADD.
N#CC[C@H](C1CCCC1)n1cc(-c2ncnc3[nH]ccc23)cn1	S
COc1cc(Nc2ncc3c(n2)-c2ccc(Cl)cc2C(c2c(F)cccc2OC)=NC3)ccc1C(=O)O	ADD.

The values you see were collected from patent US11951109B2.
